biological target: Transient receptor potential cation channel subfamily V member 1 (Homo sapiens, UniProt Q8NER1); assay: Antagonist activity at human TRPV1 expressed in CHO cells assessed as inhibition of pH-induced activity by FLIPR assay; type: cell-based
Sequence (Q8NER1 whole entry): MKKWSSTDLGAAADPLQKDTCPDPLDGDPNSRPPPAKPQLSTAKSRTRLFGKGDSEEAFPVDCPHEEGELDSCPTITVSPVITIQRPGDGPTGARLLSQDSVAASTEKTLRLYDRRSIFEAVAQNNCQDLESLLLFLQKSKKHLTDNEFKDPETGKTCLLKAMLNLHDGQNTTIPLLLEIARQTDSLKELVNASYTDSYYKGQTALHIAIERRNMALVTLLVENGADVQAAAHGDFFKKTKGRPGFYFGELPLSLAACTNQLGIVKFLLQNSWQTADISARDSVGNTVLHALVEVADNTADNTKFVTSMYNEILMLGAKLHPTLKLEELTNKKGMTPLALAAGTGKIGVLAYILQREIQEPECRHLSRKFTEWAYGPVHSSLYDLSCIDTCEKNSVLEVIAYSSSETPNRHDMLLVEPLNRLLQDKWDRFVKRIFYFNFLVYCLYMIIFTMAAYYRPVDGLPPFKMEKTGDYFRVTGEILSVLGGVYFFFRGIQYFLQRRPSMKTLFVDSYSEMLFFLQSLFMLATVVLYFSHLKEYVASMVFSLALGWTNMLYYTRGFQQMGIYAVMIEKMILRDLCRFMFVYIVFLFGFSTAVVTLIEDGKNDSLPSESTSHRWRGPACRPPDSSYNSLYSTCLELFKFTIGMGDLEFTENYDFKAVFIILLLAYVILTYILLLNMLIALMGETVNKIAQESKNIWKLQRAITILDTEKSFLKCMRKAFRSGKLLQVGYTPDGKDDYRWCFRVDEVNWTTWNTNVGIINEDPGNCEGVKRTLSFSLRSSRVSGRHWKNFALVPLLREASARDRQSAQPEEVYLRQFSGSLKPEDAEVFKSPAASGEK
metricName: pIC50
In plain terms, pIC50 is the concentration in mol/L turned into minus its base-10 logarithm.

Fill blank: measured pIC50 of the compound CC1CCN(c2nc(C(F)(F)F)ccc2CNC(=O)C(C)c2ccc(NS(C)(=O)=O)c(F)c2)CC1 (configuration not stated) is ____.
7.80

Same lookup for CCCCOc1nc(C(F)(F)Cl)ccc1CNC(=O)C(C)c1ccc(NS(C)(=O)=O)c(F)c1 (configuration not stated) , please.
8.08

----------
target: Transient receptor potential cation channel subfamily V member 1 (Homo sapiens); assay: Antagonist activity at human TRPV1 expressed in CHO cells assessed as inhibition of capsaicin-induced activity by FLIPR assay; assay type: cell-based; settings: read-out: Ki
metricName: Ki (nM)
Please reply with the bare figure in nM and do not write the unit itself.

Sample answers from the record:
compound	metricName	unitAbbreviation	reading
CC(C(=O)NCc1ccc(C(F)(F)Cl)nc1N1CCCCCC1)c1ccc(NS(C)(=O)=O)c(F)c1 (stereo not given)	Ki	nM	0.5
CCCCCCOc1nc(C(F)(F)F)cc(C)c1CNC(=O)C(C)c1ccc(NS(C)(=O)=O)c(F)c1 (stereo not given)	Ki	nM	100
CC(C(=O)NCc1ccc(C(F)(F)Cl)nc1SC1CCCCC1)c1ccc(NS(C)(=O)=O)c(F)c1 (stereo not given)	Ki	nM	3
CC(C(=O)NCc1ccc(C(F)(F)Cl)nc1N1CCCCC1)c1ccc(NS(C)(=O)=O)c(F)c1 (stereo not given)	Ki	nM	1.3
CC(C(=O)NCc1ccc(C2CC2)nc1N1CCCCC1)c1ccc(NS(C)(=O)=O)c(F)c1 (stereo not given)	Ki	nM	1.1

GET /values?readout=Ki&system=Transient receptor potential cation channel subfamily V member 1 (Homo sapiens)&item= CC1CC(C)CN(c2nc(C(F)(F)Cl)ccc2CNC(=O)C(C)c2ccc(NS(C)(=O)=O)c(F)c2)C1 (mixture of isomers)
1

What do you have for CC1CCN(c2nc(C3CC3)ccc2CNC(=O)C(C)c2ccc(NS(C)(=O)=O)c(F)c2)CC1 (stereo not given) ?
0.9

Another compound: CC(C(=O)NCc1ncc(C(F)(F)F)cc1N1CCCCC1)c1ccc(NS(C)(=O)=O)c(F)c1 (stereo not given)
28.6

Repeat for the following compound: CCCCOc1nc(C(F)(F)Cl)ccc1CNC(=O)C(C)c1ccc(NS(C)(=O)=O)c(F)c1 (stereo not given)
0.3

Consider next the compound CC1CCN(c2nc(-c3ccc(F)cc3)ccc2CNC(=O)C(C)c2ccc(NS(C)(=O)=O)c(F)c2)CC1 (stereo not given) in the same way.
59
